molecular target: pm5, modified CCR8 related peptide (human, sulfated tyrosines at Y15 and Y17); assay: ELISA on coated CCR8 peptide (500 ng/mL), OD [cont.]
Sequence (peptide, as listed by the source): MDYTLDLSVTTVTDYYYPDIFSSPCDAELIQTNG

BINDER | binding result
anti-CCR8 mAb 2-10 (antibody, V domains shown) VH: QVQVQQSGAELARPGASVKMSCKASGYTFTTYAMHWVKQRPGQGLEWIGHINPSSGYSNYNQKFKDKATLTADKSSSTAYMQLSSLTSEDSAVYYCARSEVRRGYFDVWGAGTTVTVSS VL: DIQMTQTTSSLSASLGDRVTISCRTSQDIRNYLNWYQQKPDGTVKLLISYTSRLHSGVPSRFSGSGSGTDYSLTISNLEQEDFATYFCQQGNTLPPTFGGGTRVEIK | binds
anti-CCR8 mAb 2-7 (antibody, V domains shown) VH: QVQLKESGPGLVAPSQSLSITCTVSGFSLTDYRVSWIRQPPGKGLEWLGVIWGGRSTYYNSALKSRLSISKDNSKSQVFLKMNSLQTDDTAMYYCAKQGDGYYALDYWGQGTSVTVSS VL: DVVMTQTPLSLPVSLGDQASISCRSSQSLVHSYGNTYLHWYLQKPGQSPKLLIYKVSNRFSGVPDRFHGSGSGTDFTLKISRVEAEDLGVYFCSQSTHVPPTFGGGTKLEIK | binds
anti-CCR8 mAb 2-6 (antibody, V domains shown) VH: QVQLKESGPGLVAPSQSLSITCTVSGLSMNDYVVTWIRQPPGKGLEWLGVIWGGGNTYYNSDLKSRLSITKDNSKSQVFFKMSSLQTDDTAVYYCARRHRDYALDYWGQGISVTVSS VL: ENVLTQSPAIMSASPGEKVTMTCRASSSVSSSYLHWYQQKSGASPKLWIYSTSNLASGVPARFSGSGSGTSYSLTISSVEAEDAATYYCQQYSGYPYTFGGGTKLEIK | binds
